assay.summary: Repeated once-daily oral dosing with food (Days 1-7) in healthy subjects, PK and PD
Format: in vivo, human
condition.set: both sexes, human, plasma, oral, 12 mg, young subjects, 12 mg, Day 7; read-out: Cmax, Mean (SD)
metric.name: Cmax (ng/mL)

Cc1ccc(COC(=O)N2CC[C@H](CNc3ncccn3)[C@H](F)C2)cc1 [Form II]: 274

###

assay.summary: Repeated once-daily oral dosing with food (Days 1-7) in healthy subjects, PK and PD
Type: in vivo, human
condition.set: both sexes, human, plasma, oral, 12 mg, elderly, 12 mg, Day 7; read-out: Cmax, Mean (SD)
metric.name: Cmax

Cc1ccc(COC(=O)N2CC[C@H](CNc3ncccn3)[C@H](F)C2)cc1 [Form II]: 0.349 µg/mL
